# Tested On: Calpain-1 catalytic subunit (Homo sapiens)
# Assay Comment: Inhibition of human erythrocytes mu-calpain by spectrofluorimeter
Measurement Label: IC50

1) Cc1ccc(=O)[nH]c1C(=O)N[C@@H](Cc1ccccc1)C(=O)C(=O)NCc1ccccc1    64.6 µM
2) Cc1ccc(=O)[nH]c1C(=O)N[C@@H](Cc1ccccc1)C(=O)C(=O)NC(C)C    > 100 µM
3) COc1ccc(CCNC(=O)C(=O)[C@H](Cc2ccccc2)NC(=O)c2[nH]c(=O)ccc2C)cc1    6.19 µM
4) Cc1ccc(=O)[nH]c1C(=O)N[C@@H](Cc1ccccc1)C(=O)C(=O)NCc1ccccn1    84.8 µM
5) CNC(=O)C(=O)[C@H](Cc1ccccc1)NC(=O)c1[nH]c(=O)ccc1C    91.4 µM
6) Cc1ccc(=O)[nH]c1C(=O)N[C@@H](Cc1ccccc1)C(=O)C(=O)NCc1ccc(F)cc1    22.1 µM
7) Cc1ccc(=O)[nH]c1C(=O)N[C@@H](Cc1ccccc1)C(=O)C(=O)NCCc1ccccn1    34 µM
8) CCNC(=O)C(=O)[C@H](Cc1ccccc1)NC(=O)c1[nH]c(=O)ccc1C    40.2 µM
9) Cc1ccc(=O)[nH]c1C(=O)N[C@@H](Cc1ccccc1)C(=O)C(=O)NCCc1ccccc1    7.41 µM

* * *

# Tested On: Calpain-1 catalytic subunit (Homo sapiens, UniProt P07384)
# Sequence (P07384 whole entry): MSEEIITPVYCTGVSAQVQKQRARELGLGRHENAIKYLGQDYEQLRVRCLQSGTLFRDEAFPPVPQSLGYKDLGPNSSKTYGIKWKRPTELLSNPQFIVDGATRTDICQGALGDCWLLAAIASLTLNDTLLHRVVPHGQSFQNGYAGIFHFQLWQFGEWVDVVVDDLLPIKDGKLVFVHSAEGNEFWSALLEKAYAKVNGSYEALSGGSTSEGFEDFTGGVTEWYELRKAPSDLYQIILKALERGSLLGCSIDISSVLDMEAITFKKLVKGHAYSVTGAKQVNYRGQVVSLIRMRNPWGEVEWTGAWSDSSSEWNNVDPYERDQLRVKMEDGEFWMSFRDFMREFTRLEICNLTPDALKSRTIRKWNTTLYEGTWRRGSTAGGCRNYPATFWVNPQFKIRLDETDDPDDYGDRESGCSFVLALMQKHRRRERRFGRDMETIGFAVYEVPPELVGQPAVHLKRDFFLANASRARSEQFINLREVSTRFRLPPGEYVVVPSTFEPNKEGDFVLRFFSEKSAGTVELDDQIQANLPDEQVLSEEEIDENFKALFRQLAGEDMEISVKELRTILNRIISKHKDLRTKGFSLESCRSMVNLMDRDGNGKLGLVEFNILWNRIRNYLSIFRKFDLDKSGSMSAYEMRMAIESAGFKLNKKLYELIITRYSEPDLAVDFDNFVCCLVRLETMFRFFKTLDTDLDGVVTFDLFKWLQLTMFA
# Assay Comment: Inhibition of human erythrocytes mu-calpain by spectrofluorimeter
pIC50: −log10 of the molar value.
Recorded measurements of pIC50, one per entry
Measurement Label: pIC50

1. COc1ccc(CNC(=O)C(=O)[C@H](Cc2ccccc2)NC(=O)c2[nH]c(=O)ccc2C)cc1OC    4.45
2. COc1ccc(CNC(=O)C(=O)[C@H](Cc2ccccc2)NC(=O)c2[nH]c(=O)ccc2C)cc1    5.21
3. Cc1ccc(=O)[nH]c1C(=O)N[C@@H](Cc1ccccc1)C(=O)C(N)=O    5.55
